- Test Details: growth inhibition of non-replicating M. tuberculosis (AID 488890);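 note: plate controls were DMSO cells for no effect and high antibiotic wells for full effect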
- Particulars: Mycobacterium tuberculosis non-replicating, at 25 µM, stronger effect = higher value
In all, about 320,000 compounds went through this assay and about 1,300 (0.41%) were called active. Not shown: some 3% with an inconclusive outcome. The list is a sample of the results. Entries with a potency or affinity are not part of this list.
Quantity Name: inhibition (%)
Report the figure in % without appending any unit label.

Req: // query inhibition value for entry COc1ccc(C(=O)COC(=O)c2ccc(OC)c(OC)c2)cc1OC
Resp: 3.56

Req: // query inhibition value for entry Cc1ccc(SCC(=O)c2cc(C)c(O)c(C)c2)cc1
Resp: 0.12

Req: // query inhibition value for entry CS(=O)(=O)N(CC(=O)NCCC1=CCCCC1)c1ccc2c(c1)OCO2
Resp: -1.16

Req: // query inhibition value for entry COc1ccc(CN2CCNC(=O)C2CC(=O)N(C)Cc2nccn2C)cc1OC (configuration not stated)
Resp: -4.39

Req: // query inhibition value for entry COc1ccc(C(CC(=O)N2CCCC(C)C2)c2c(OC)cc(OC)c3ccc(=O)oc23)cc1 (configuration not stated)
Resp: 28.4

Req: // query inhibition value for entry COC(=O)C1=C(C)N(CCCC(=O)O)C(=O)NC1c1ccc(OC)cc1 (configuration not stated)
Resp: -3.65

Req: // query inhibition value for entry CCc1ccc(/C=N/NC(=O)Cc2ccc(OC)c(OC)c2)s1
Resp: 9.54

###

- Test Details: growth inhibition of non-replicating M. tuberculosis (AID 488890);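 note: plate controls were DMSO cells for no effect and high antibiotic wells for full effect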
- Particulars: Mycobacterium tuberculosis non-replicating, at 25 µM, stronger effect = higher value
The whole screen tested about 320,000 compounds, of which about 1,300 (0.41%) were called active. About 3% were inconclusive and are not listed. These entries were drawn from the full list. Results with a measured potency or affinity are listed apart.
Quantity Name: inhibition (%)
Report the figure in % without appending any unit label.

Req: // query inhibition value for entry Oc1c(C(c2ccc(F)cc2)N2CCc3ccccc3C2)sc2ncnn12 (stereo unspecified)
Resp: 13.3

Req: // query inhibition value for entry Cc1c(C(=O)O)[nH]c2c1C(=O)CC(c1ccccc1)C2 (stereo unspecified)
Resp: 4.15

Req: // query inhibition value for entry O=C(Nc1ccc([N+](=O)[O-])cn1)c1ccc2c(c1)OCO2
Resp: -8.57

Req: // query inhibition value for entry Cc1cnc(NC(=O)c2ccc3c(c2)OCCO3)s1
Resp: 12.1

Req: // query inhibition value for entry CCCCn1c(N)c(N(Cc2ccccc2OC)C(=O)c2ccc(N3CCCC3=O)cc2)c(=O)[nH]c1=O
Resp: 18.9

Req: // query inhibition value for entry CCCS(=O)(=O)C/C(N)=N/OC(=O)c1ccc(Cl)cc1
Resp: 3.52

###

- Test Details: growth inhibition of non-replicating M. tuberculosis (AID 488890);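 note: plate controls were DMSO cells for no effect and high antibiotic wells for full effect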
- Particulars: Mycobacterium tuberculosis non-replicating, at 25 µM, stronger effect = higher value
Screen size: about 320,000 compounds; about 1,300 (0.41%) were called active. Inconclusive results (about 3%) are left out. Only a sample is shown. Measured potencies and affinities stand elsewhere.
Please provide measured inhibition for the entries that follow.
Report the figure in % without appending any unit label.

Req: // query inhibition value for entry CC1Cc2ccccc2N1C(=O)CCS(=O)(=O)c1cccs1 (configuration not stated)
Resp: 15.3

Req: // query inhibition value for entry CCOC(=O)/C(=N\Nc1cc(Cl)ccc1Cl)N1CCN(CC)CC1
Resp: 46

Req: // query inhibition value for entry O=C(CCc1ccccc1)N1CCN(c2ccc(F)cc2)CC1
Resp: 73.8

Req: // query inhibition value for entry CN(C)CCCNC1CS(=O)(=O)CC1O (configuration not stated)
Resp: -14.7

Req: // query inhibition value for entry COc1ccc(Br)cc1S(=O)(=O)N1CCN=C1c1ccccc1
Resp: 9.49

Req: // query inhibition value for entry CC(=O)c1ccccc1OCc1ccc(S(=O)(=O)Cc2ccccc2)cc1
Resp: 46

Req: // query inhibition value for entry Cc1ccc(NC(=O)C2(c3ccc([N+](=O)[O-])cc3)CCCC2)cc1
Resp: 56.9

Req: // query inhibition value for entry CC1(C)Oc2ccc(C(=O)N/N=C/c3ccc(O)cc3)cc2NC1=O
Resp: 4.72

Req: // query inhibition value for entry CC(NC(=S)NC(=O)c1ccccc1)c1ccccc1 (configuration not stated)
Resp: 38.7

Req: // query inhibition value for entry CCc1ccc(OCc2ccc(C(=O)OC)o2)cc1
Resp: 72.2

Req: // query inhibition value for entry CC(C)(C)OC(=O)NCCc1nnc(SCc2ccc(Cl)cc2)o1
Resp: 64.8

Req: // query inhibition value for entry CC(C)(C)OC(=O)NCCc1nnc(SCc2ccc(Cl)cc2Cl)o1
Resp: 41.4

Measured values drawn from PubChem BioAssay AID488890 for this set.
